experimental system: T1, PCY1:S562A (Saponaria vaccaria, UniProt R4P353 1-724, S562A)
T1 sequence: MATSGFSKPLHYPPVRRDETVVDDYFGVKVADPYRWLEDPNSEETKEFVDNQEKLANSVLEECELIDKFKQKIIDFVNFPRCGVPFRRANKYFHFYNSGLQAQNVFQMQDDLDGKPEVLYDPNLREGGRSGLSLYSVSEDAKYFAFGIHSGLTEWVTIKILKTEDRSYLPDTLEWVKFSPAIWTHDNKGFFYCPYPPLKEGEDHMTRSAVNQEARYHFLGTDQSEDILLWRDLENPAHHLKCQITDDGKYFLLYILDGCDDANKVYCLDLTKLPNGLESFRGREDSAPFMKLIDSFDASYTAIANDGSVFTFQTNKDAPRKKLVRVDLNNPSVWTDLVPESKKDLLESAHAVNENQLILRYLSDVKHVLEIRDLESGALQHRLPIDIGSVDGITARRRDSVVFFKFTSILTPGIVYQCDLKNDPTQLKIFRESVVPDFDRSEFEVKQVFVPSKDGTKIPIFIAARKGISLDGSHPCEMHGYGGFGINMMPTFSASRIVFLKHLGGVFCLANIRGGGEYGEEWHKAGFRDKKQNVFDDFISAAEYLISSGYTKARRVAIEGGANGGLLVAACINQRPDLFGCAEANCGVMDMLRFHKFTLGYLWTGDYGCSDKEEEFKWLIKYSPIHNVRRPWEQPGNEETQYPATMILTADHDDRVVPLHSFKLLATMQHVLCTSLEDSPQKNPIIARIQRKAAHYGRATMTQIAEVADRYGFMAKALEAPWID
assay remarks: ITC
quantity measured: Kd (µM)
Give the value, in units of µM, as a plain number.

# return recorded Kd for input "DNASAPV"
9.58
